This collection of values is drawn from ChEMBL document CHEMBL1641472.

# test name: Drug level in Sprague-Dawley rat plasma at 10 mg/kg, po after 2 hrs
# Format: ADME, organism-based
# Parameters: dose 10 mg/kg, route oral
# recorded conditions: read-out: Drug uptake
Exercise: for every item that follows, state its recorded concentration at 2 h.

# annotated cases, reported concentration at 2 h shown
O=c1cc(OCc2ccccc2)ccn1-c1ccc(OCCN2CCCCC2)cc1; 200 nM
O=c1cc(OCc2ccc(Cl)cc2)ccn1-c1ccc(OCCN2CCCC2)cc1; 470 nM

Continue with the next molecule.
Provide only the value of recorded concentration at 2 h for `O=c1cc(OCc2ccc(F)cc2)ccn1-c1ccc(OCCN2CCCC2)cc1` 1000 nM
